- PROCEDURE_DETAILS: AUC (0 to infinity) in Soviet Chinchilla rabbit at 8.1 mg/kg, iv administered as pluronic F127 formulation measured upto 72 hrs by high-performance liquid chromatography tandem mass spectrometric analysis
- Type: ADME, organism-based, Oryctolagus cuniculus
- Set-up: dose 8.1 mg/kg, time < 72 hrs, route iv
- CONDITIONS_USED: in vivo
RESULT_TYPE: AUC(0-inf)

[in] Using the record for `CC(=O)O[C@@]12CO[C@@H]1C[C@H](O)[C@@]1(C)C(=O)[C@H](O)C3=C(C)[C@@H](OC(=O)[C@H](OC(=O)CCCc4cn(CCCNC(=O)[C@H](Cc5ccc(O)cc5)NC(=O)[C@H](Cc5ccccc5)NC(=O)CCC(=O)NCCCCCC(=O)N(CCCC[C@H](NC(=O)N[C@@H](CCC(=O)O)C(=O)O)C(=O)O)Cc5cccc(Cl)c5)nn4)[C@@H](NC(=O)OC(C)(C)C)c4ccccc4)C[C@@](O)([C@@H](OC(=O)c4ccccc4)[C@H]21)C3(C)C` , report its AUC(0-inf).
[out] 289 µg·h/mL

---

- PROCEDURE_DETAILS: Volume of distribution in Soviet Chinchilla rabbit at 8.1 mg/kg, iv administered as pluronic F127 formulation measured upto 72 hrs by high-performance liquid chromatography tandem mass spectrometric analysis
- Type: ADME, organism-based, Oryctolagus cuniculus
- CONDITIONS_USED: in vivo
RESULT_TYPE: Vd

[in] Using the record for `CC(=O)O[C@@]12CO[C@@H]1C[C@H](O)[C@@]1(C)C(=O)[C@H](O)C3=C(C)[C@@H](OC(=O)[C@H](OC(=O)CCCc4cn(CCCNC(=O)[C@H](Cc5ccc(O)cc5)NC(=O)[C@H](Cc5ccccc5)NC(=O)CCC(=O)NCCCCCC(=O)N(CCCC[C@H](NC(=O)N[C@@H](CCC(=O)O)C(=O)O)C(=O)O)Cc5cccc(Cl)c5)nn4)[C@@H](NC(=O)OC(C)(C)C)c4ccccc4)C[C@@](O)([C@@H](OC(=O)c4ccccc4)[C@H]21)C3(C)C` , report its Vd.
[out] 0.332 L/kg

---

- PROCEDURE_DETAILS: Clearance in Soviet Chinchilla rabbit at 8.1 mg/kg, iv administered as pluronic F127 formulation measured upto 72 hrs by high-performance liquid chromatography tandem mass spectrometric analysis
- Format: ADME, organism-based, Oryctolagus cuniculus
- CONDITIONS_USED: in vivo
RESULT_TYPE: clearance (mL/min/kg)
Number only, in mL/min/kg; omit the unit.

[in] Using the record for `CC(=O)O[C@@]12CO[C@@H]1C[C@H](O)[C@@]1(C)C(=O)[C@H](O)C3=C(C)[C@@H](OC(=O)[C@H](OC(=O)CCCc4cn(CCCNC(=O)[C@H](Cc5ccc(O)cc5)NC(=O)[C@H](Cc5ccccc5)NC(=O)CCC(=O)NCCCCCC(=O)N(CCCC[C@H](NC(=O)N[C@@H](CCC(=O)O)C(=O)O)C(=O)O)Cc5cccc(Cl)c5)nn4)[C@@H](NC(=O)OC(C)(C)C)c4ccccc4)C[C@@](O)([C@@H](OC(=O)c4ccccc4)[C@H]21)C3(C)C` , report its clearance.
[out] 0.483

---

- PROCEDURE_DETAILS: C0 in Soviet Chinchilla rabbit at 8.1 mg/kg, iv administered as pluronic F127 formulation measured upto 72 hrs by high-performance liquid chromatography tandem mass spectrometric analysis
- Assay type: ADME, organism-based, Oryctolagus cuniculus
- CONDITIONS_USED: in vivo
RESULT_TYPE: C0 at 72 h (µg/mL)
Number only, in µg/mL; omit the unit.

[in] Using the record for `CC(=O)O[C@@]12CO[C@@H]1C[C@H](O)[C@@]1(C)C(=O)[C@H](O)C3=C(C)[C@@H](OC(=O)[C@H](OC(=O)CCCc4cn(CCCNC(=O)[C@H](Cc5ccc(O)cc5)NC(=O)[C@H](Cc5ccccc5)NC(=O)CCC(=O)NCCCCCC(=O)N(CCCC[C@H](NC(=O)N[C@@H](CCC(=O)O)C(=O)O)C(=O)O)Cc5cccc(Cl)c5)nn4)[C@@H](NC(=O)OC(C)(C)C)c4ccccc4)C[C@@](O)([C@@H](OC(=O)c4ccccc4)[C@H]21)C3(C)C` , report its C0 at 72 h.
[out] 79
